The following molecules are shown together with reported TGI values.
- System: SK-MEL-28 melanoma
- Protocol description: NCI tumour cell line growth inhibition, 48 h

# molecule "Cc1nc2ccccc2c(=O)[nH]1" ; its TGI = > 100 µM

# molecule "O=c1cc(-c2ccccc2)c2cc3c(=O)ccoc3cc2o1" ; its TGI = > 100 µM

# molecule "O=C1CCCCc2cccc(O)c21" ; its TGI = > 100 µM

# molecule "COc1cc[nH]c1/C=C1\C(=O)Nc2ccc(F)c(I)c21" ; its TGI = > 25 µM

# molecule CCCCCCCCCCCCCCCCCCCCCC(=O)Nc1ccn(C2OC(CO)C(O)C2O)c(=O)n1 (stereo unspecified) ; its TGI = > 100 µM

# molecule CC1C(=O)C(C)C(c2ccccc2)N(N=O)C1c1ccccc1 (stereo unspecified) ; its TGI = > 834 µM
